TARGET OF ASSAY: IRAK4 (Homo sapiens, UniProt Q9NWZ3)
Sequence (Q9NWZ3 1-460): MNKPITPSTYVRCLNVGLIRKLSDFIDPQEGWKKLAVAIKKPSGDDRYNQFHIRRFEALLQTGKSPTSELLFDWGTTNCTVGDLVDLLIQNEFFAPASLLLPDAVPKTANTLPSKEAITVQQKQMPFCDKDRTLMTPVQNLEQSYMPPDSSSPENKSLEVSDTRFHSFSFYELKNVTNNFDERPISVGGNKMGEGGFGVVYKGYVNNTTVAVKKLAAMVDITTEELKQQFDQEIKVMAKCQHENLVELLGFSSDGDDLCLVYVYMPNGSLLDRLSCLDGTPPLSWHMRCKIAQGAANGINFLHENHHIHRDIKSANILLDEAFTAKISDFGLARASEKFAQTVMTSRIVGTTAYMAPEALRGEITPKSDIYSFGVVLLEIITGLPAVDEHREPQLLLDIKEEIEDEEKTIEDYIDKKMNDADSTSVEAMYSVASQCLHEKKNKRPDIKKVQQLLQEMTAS
RUN DESCRIPTION: mRNA display affinity selection against IRAK4, NGS abundance
Type: binding
Design: acids 1-460; NP_057207.2) was purchased from Carna Biosciences; purchased Carna Biosciences (Kobe, Japan)
CONDITION DESCRIPTION: IRAK4 selection pulldown (+); Top100 selection hits, NGS
A collection of sequences and their measured Library fraction
MEASUREMENT TYPE: Library fraction

> print(dat)
    residue.string  measurement.type  measured.number
 1      SLLWKRRVYC  Library fraction           0.0007
 2      SQLCHRRIYK  Library fraction           0.0001
 3      TMLWKRRIYR  Library fraction            0.044
 4      RTYWKRRCYA  Library fraction           0.0076
 5      SVLWKKRVWQ  Library fraction            0.003
 6      AMRWRNRCYK  Library fraction           0.0001
 7      TLCWKRRTWK  Library fraction            0.026
 8      TQRWKRRNYT  Library fraction           0.0013
 9     GPILYNRRLFV  Library fraction           0.0002
10      RLLWRRRNYA  Library fraction           0.0009
11      SMLWKRRICI  Library fraction           0.0002
12      ALLWRRRNYH  Library fraction           0.0006
13      STYRKRRIWY  Library fraction           0.0001
14      SIMWKRRVFK  Library fraction           0.0001
15      SIFWRRRIYK  Library fraction            0.002
16      SRLWRRRIFQ  Library fraction           0.0001
17      RLCWKRRNWT  Library fraction           0.0004
18      SVLWKRKIHN  Library fraction           0.0012
19      SMLFKRRVYK  Library fraction           0.0001
20      RLLWKRRNYQ  Library fraction           0.0002
21      RMLWKRRMWH  Library fraction           0.0011
22      TLLWKRRIYK  Library fraction           0.0019
23      RTRWKCKMYH  Library fraction           0.0002
24      SLLWKRRMMK  Library fraction           0.0001
25      SQRWRNRNYR  Library fraction            0.013
26      RQRWRGRKYH  Library fraction           0.0001
27      SQRYKQRCYK  Library fraction           0.0017
28      STRWKRRNYT  Library fraction           0.0004
29      SLRWKNRNHK  Library fraction           0.0006
30      SLLWKRRCYN  Library fraction           0.0038
31      AMLWKRRLWR  Library fraction           0.0005
32      SQRYRNRNYQ  Library fraction           0.0023
33      SILWKKRVWK  Library fraction            0.016
34      SILWKKHIYK  Library fraction           0.0035
35      TQRWKCRLYR  Library fraction           0.0001
36      TQRYLSKNYK  Library fraction           0.0001
37      STYWKSRIYT  Library fraction           0.0002
38      SIYWKRRRYK  Library fraction           0.0001
39      SLLWRRRVYK  Library fraction            0.080
40      CQCWNRRNWT  Library fraction           0.0003
41      TQFWKRRNYA  Library fraction           0.0002
42      SMLWKRKIWG  Library fraction           0.0047
43      TLCWRRRNYK  Library fraction            0.024

* * *

TARGET OF ASSAY: IRAK4 (Homo sapiens, UniProt Q9NWZ3)
Sequence (Q9NWZ3 1-460): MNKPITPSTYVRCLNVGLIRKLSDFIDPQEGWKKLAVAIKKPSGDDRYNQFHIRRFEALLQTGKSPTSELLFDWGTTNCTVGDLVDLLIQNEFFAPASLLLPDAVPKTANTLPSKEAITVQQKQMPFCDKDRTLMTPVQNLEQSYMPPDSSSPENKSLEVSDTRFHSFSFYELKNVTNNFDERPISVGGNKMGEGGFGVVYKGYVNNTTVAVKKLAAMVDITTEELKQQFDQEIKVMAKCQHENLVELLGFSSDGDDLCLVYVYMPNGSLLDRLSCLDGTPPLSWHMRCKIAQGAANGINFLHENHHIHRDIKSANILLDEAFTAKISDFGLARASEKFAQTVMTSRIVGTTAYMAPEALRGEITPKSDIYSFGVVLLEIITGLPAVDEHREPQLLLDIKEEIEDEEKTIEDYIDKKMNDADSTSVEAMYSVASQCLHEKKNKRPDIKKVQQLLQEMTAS
RUN DESCRIPTION: mRNA display affinity selection against IRAK4, NGS abundance
Assay type: binding
Design: acids 1-460; NP_057207.2) was purchased from Carna Biosciences; purchased Carna Biosciences (Kobe, Japan)
CONDITION DESCRIPTION: IRAK4 selection pulldown (+); Top100 selection hits, NGS
MEASUREMENT TYPE: Raw reads

> print(dat)
    residue.string                       target.of.assay  result
 1      SQRWRCRNYQ  IRAK4 (Homo sapiens, UniProt Q9NWZ3)     116
 2      CQRWKRRCYM  IRAK4 (Homo sapiens, UniProt Q9NWZ3)      76
 3      RTYWKRRCYA  IRAK4 (Homo sapiens, UniProt Q9NWZ3)     814
 4      TQRVRNRCYK  IRAK4 (Homo sapiens, UniProt Q9NWZ3)    1424
 5      SVCWKRRNCH  IRAK4 (Homo sapiens, UniProt Q9NWZ3)      24
 6      SVLWRKRIYR  IRAK4 (Homo sapiens, UniProt Q9NWZ3)     391
 7      MMLWKRRMYK  IRAK4 (Homo sapiens, UniProt Q9NWZ3)      15
 8      SILWKKRVWK  IRAK4 (Homo sapiens, UniProt Q9NWZ3)    1700
 9      RQRWRGRKYH  IRAK4 (Homo sapiens, UniProt Q9NWZ3)       8
10      TQRYLSKNYK  IRAK4 (Homo sapiens, UniProt Q9NWZ3)      12
11      SRLWRRRIFQ  IRAK4 (Homo sapiens, UniProt Q9NWZ3)      10
12      SMLFKRRIYK  IRAK4 (Homo sapiens, UniProt Q9NWZ3)   22521
13      SLLWRRRVYK  IRAK4 (Homo sapiens, UniProt Q9NWZ3)    8519
14    AMSLYWARRRPH  IRAK4 (Homo sapiens, UniProt Q9NWZ3)     304
15      SMLWGRRIYR  IRAK4 (Homo sapiens, UniProt Q9NWZ3)     168
16      TLCWRRRNYK  IRAK4 (Homo sapiens, UniProt Q9NWZ3)    2567
17      RVLWKKRNYA  IRAK4 (Homo sapiens, UniProt Q9NWZ3)      46
18      AQRWRQKCYK  IRAK4 (Homo sapiens, UniProt Q9NWZ3)      19
19      SVRWKHRIYK  IRAK4 (Homo sapiens, UniProt Q9NWZ3)      29
20      SIMWKRRVFK  IRAK4 (Homo sapiens, UniProt Q9NWZ3)       9
21      STRWKRRNYT  IRAK4 (Homo sapiens, UniProt Q9NWZ3)      39
22      SMLFKRRVYK  IRAK4 (Homo sapiens, UniProt Q9NWZ3)      10
23      RLCWKRRNWT  IRAK4 (Homo sapiens, UniProt Q9NWZ3)      47
24      TMLWKRRIHA  IRAK4 (Homo sapiens, UniProt Q9NWZ3)     323
25      SLLWKRRVYC  IRAK4 (Homo sapiens, UniProt Q9NWZ3)      78
26      TMLWKRRIYR  IRAK4 (Homo sapiens, UniProt Q9NWZ3)    4661
27      CQCWNRRNWT  IRAK4 (Homo sapiens, UniProt Q9NWZ3)      35
28      RLLWKRRNYQ  IRAK4 (Homo sapiens, UniProt Q9NWZ3)      25
29      SQRYKRRNYK  IRAK4 (Homo sapiens, UniProt Q9NWZ3)      92
30      SRLWRRRIYH  IRAK4 (Homo sapiens, UniProt Q9NWZ3)     985
31     GPLLWNTRIYC  IRAK4 (Homo sapiens, UniProt Q9NWZ3)      14
32      ARLWRRRIYQ  IRAK4 (Homo sapiens, UniProt Q9NWZ3)      11
33      STLWNKKIYK  IRAK4 (Homo sapiens, UniProt Q9NWZ3)      54
34    TADGLILTPWVT  IRAK4 (Homo sapiens, UniProt Q9NWZ3)      15
35      RTRWKCKMYH  IRAK4 (Homo sapiens, UniProt Q9NWZ3)      20
36      SVRWKRRDYR  IRAK4 (Homo sapiens, UniProt Q9NWZ3)     492
37      AMRWRNRCYK  IRAK4 (Homo sapiens, UniProt Q9NWZ3)      14
38      SVLWKKRVWQ  IRAK4 (Homo sapiens, UniProt Q9NWZ3)     318
39      ALLWRRRNYH  IRAK4 (Homo sapiens, UniProt Q9NWZ3)      61
40      SMLFKRRMYK  IRAK4 (Homo sapiens, UniProt Q9NWZ3)      27
41      TLLWKRRIYK  IRAK4 (Homo sapiens, UniProt Q9NWZ3)     207
42      SQLYKRRIYQ  IRAK4 (Homo sapiens, UniProt Q9NWZ3)      37
43      SLLWKRRCYN  IRAK4 (Homo sapiens, UniProt Q9NWZ3)     409
44      RMLWKRRMWH  IRAK4 (Homo sapiens, UniProt Q9NWZ3)     118
45      SMLWKRRICI  IRAK4 (Homo sapiens, UniProt Q9NWZ3)      17
46      STYWKSRIYT  IRAK4 (Homo sapiens, UniProt Q9NWZ3)      23
47      SLLWKRRIMK  IRAK4 (Homo sapiens, UniProt Q9NWZ3)   19248
48      TQRWNNRNWC  IRAK4 (Homo sapiens, UniProt Q9NWZ3)      29
49      TQRWKRRNYT  IRAK4 (Homo sapiens, UniProt Q9NWZ3)     136
50      SQRWRNRNYR  IRAK4 (Homo sapiens, UniProt Q9NWZ3)    1364
51      SLLWKRRMMK  IRAK4 (Homo sapiens, UniProt Q9NWZ3)      11
52      SVLWKRRIWK  IRAK4 (Homo sapiens, UniProt Q9NWZ3)    3569
53      SQLYKRRIWM  IRAK4 (Homo sapiens, UniProt Q9NWZ3)       9
54      AMLWKRRLWR  IRAK4 (Homo sapiens, UniProt Q9NWZ3)      57
55      TCLWKRRIYS  IRAK4 (Homo sapiens, UniProt Q9NWZ3)      10
56      TQRWKQKNWS  IRAK4 (Homo sapiens, UniProt Q9NWZ3)       9
57      SVLWKRRIAK  IRAK4 (Homo sapiens, UniProt Q9NWZ3)    1112
58      SLLWKRRICR  IRAK4 (Homo sapiens, UniProt Q9NWZ3)      65
59      TLCWKRRTWK  IRAK4 (Homo sapiens, UniProt Q9NWZ3)    2745
60      TQFWKRRNYA  IRAK4 (Homo sapiens, UniProt Q9NWZ3)      26
61      SVFWNRRIYK  IRAK4 (Homo sapiens, UniProt Q9NWZ3)      68
62      TQRWKHRLYK  IRAK4 (Homo sapiens, UniProt Q9NWZ3)      68
63      AQRWRRRCYH  IRAK4 (Homo sapiens, UniProt Q9NWZ3)      85
64     GPILYNRRLFV  IRAK4 (Homo sapiens, UniProt Q9NWZ3)      21
65      SLLYKRRIYK  IRAK4 (Homo sapiens, UniProt Q9NWZ3)    4704
66      SVLWKRKIHN  IRAK4 (Homo sapiens, UniProt Q9NWZ3)     125
